Reference source: PubChem BioAssay AID248

Reported values of T/C for individual entries
# Test system: L1210 leukemia ip in BDF1 mice, survival T/C
# experiment summary: NCI In Vivo Anticancer Drug Screen. Data for tumor model L1210 Leukemia (intraperitoneal) in B6D2F1 (BDF1) mice
# test settings: endpoint: mean survival time; dose: 400.0 mg/kg/injection; schedule: Q01DX001 (ip); vehicle: Klucel (hydroxypropylcellulose) (HPC); higher = longer survival
# Experimental: The antitumor activity of compounds was measured in mice bearing transplantable tumors. Survival or tumor size were measured and the results are expressed as the measurement made in the treated group (T) divided by the measurement made in the vehicle treated control group (C). The tumor model used in this assay is L1210 Leukemia (intraperitoneal) in B6D2F1 (BDF1) mice
Inconclusive results and toxic doses are left out.

The cases that follow already have their T/C on record.
chem smiles: O=C1OCCN1c1ccccc1
system tested: L1210 leukemia ip in BDF1 mice, survival T/C
T/C: 100 % of control

chem smiles: NC(=O)c1cc(NCCO)c([N+](=O)[O-])cc1[N+](=O)[O-]
system tested: L1210 leukemia ip in BDF1 mice, survival T/C
T/C: 96 % of control

chem smiles: COc1ccc2c(c1)c(CC(=O)O)c(Br)n2Cc1ccccc1
system tested: L1210 leukemia ip in BDF1 mice, survival T/C
T/C: 101 % of control

chem smiles: CCOC(=O)C(=O)c1c(C)[nH]c(C(=O)OCC)c1C
system tested: L1210 leukemia ip in BDF1 mice, survival T/C
T/C: 101 % of control

chem smiles: C/C(=N\N)C(=O)S(=O)(=O)c1c(C)cc(C)cc1C
system tested: L1210 leukemia ip in BDF1 mice, survival T/C
T/C: 101 % of control

Continue with the next compound.
// query Tell me measured T/C for "CC(=O)Oc1c(C)c(Br)c(OC(C)=O)c(-c2c(C)cc(C)c(Br)c2C)c1Br" please.
// result 95 % of control
